The measured values listed here are drawn from patent US20230257396A1.

Each record here notes measured % Ctrl, EGFR(L858R, T790M).
- System Under Test: kinases (Homo sapiens, UniProt P00533, L858R/T790M)
- Construct: purchased Eurofins/DiscoveRx; host or cells: E. coli BL21-derived host (T7 phage display) for most kinases; HEK-293 for the rest
- Assay Details: KINOMEscan kinase binding assay (Eurofins/DiscoveRx), % Ctrl
- Measurement Context: 1 μM; EGFR(L858R, T790M)
Answer format: numeric, % Ctrl implied, no suffix.

Illustrative cases are given below, each with its answer.
INSERT INTO assay_data (structure_string, numeric_result) VALUES
  ('Cc1cc2c([nH]1)/C=C1\C(=O)Nc3cc(Cl)c(cc31)OCCO[C@@H](C(=O)NC1CCNCC1)CN(C)C2=O', 92),
  ('Cc1cc2c([nH]1)/C=C1\C(=O)Nc3ccc(cc31)-c1cnn(C)c1COCCN(C)C2=O', 1.7),
  ('Cc1cc2c([nH]1)/C=C1\C(=O)Nc3ccc(cc31)OCCOCCNC2=O', 98);

Exam item: Please give measured % Ctrl, EGFR(L858R, T790M) of the following entry: "Cc1cc2c([nH]1)/C=C1\C(=O)Nc3ccc(cc31)-c1c(C)n[nH]c1CNCCN(C)C2=O"
Marked response: 2.3

Exam item: Give % Ctrl, EGFR(L858R, T790M) for "Cc1cc2c([nH]1)/C=C1\C(=O)Nc3cnc(cc31)-c1cnn(C)c1COCCNC2=O"
Marked response: 92

Exam item: Give me measured % Ctrl, EGFR(L858R, T790M), please, for this compound: "CNC(=O)[C@H]1CN(C)C(=O)c2cc(C)[nH]c2/C=C2\C(=O)Nc3cc(Cl)c(cc32)OCCO1"
Marked response: 93

Exam item: Give me measured % Ctrl, EGFR(L858R, T790M), please, for this compound: "Cc1cc2c([nH]1)/C=C1\C(=O)Nc3ccc(cc31)-c1cnn(C)c1CN(C)CCN(C)C2=O"
Marked response: 0.15

Exam item: Report measured % Ctrl, EGFR(L858R, T790M); entry is "Cc1cc2c([nH]1)/C=C1\C(=O)Nc3cc(Cl)c(cc31)OCCO[C@@H](C(=O)N(C)C)CN(C)C2=O"
Marked response: 93

====

- System Under Test: kinases (Homo sapiens)
- Construct: purchased Eurofins/DiscoveRx; host or cells: E. coli BL21-derived host (T7 phage display) for most kinases; HEK-293 for the rest
- Assay Details: KINOMEscan kinase binding assay (Eurofins/DiscoveRx), % Ctrl
- Measurement Context: 1 μM; ABL1-nonphosphorylated
# cutoff 40 % Ctrl applies to % Ctrl, ABL1-nonphosphorylated; >= gives true (1), < gives false (0)

Exam item: Kindly determine if % Ctrl, ABL1-nonphosphorylated recorded for "Cc1cc2c([nH]1)/C=C1\C(=O)Nc3ccc(cc31)-c1cnn(C)c1COCCN(C)C2=O" is above or exactly 40 % Ctrl.
Marked response: false (0)

Exam item: % Ctrl, ABL1-nonphosphorylated >= 40 % Ctrl for "Cc1cc2c([nH]1)/C=C1\C(=O)Nc3ccc(nc31)-c1ccccc1OCCCNC2=O" ?
Marked response: true (1)

Exam item: Has "Cc1cc2c([nH]1)/C=C1\C(=O)Nc3cc(Cl)c(cc31)OCCO[C@@H](C(=O)NC1CCNCC1)CN(C)C2=O" a recorded % Ctrl, ABL1-nonphosphorylated greater than or equal to 40 % Ctrl?
Marked response: true (1)

Exam item: Check the entry "CNC(=O)[C@H]1CN(C)C(=O)c2cc(C)[nH]c2/C=C2\C(=O)Nc3cc(Cl)c(cc32)OCCO1" : does % Ctrl, ABL1-nonphosphorylated equal or exceed 40 % Ctrl?
Marked response: false (0)

Exam item: Entry "Cc1cc2c([nH]1)/C=C1\C(=O)Nc3cc(Cl)c(cc31)OCCO[C@@H](C(=O)N[C@@H]1CCNC1)CN(C)C2=O" : is its % Ctrl, ABL1-nonphosphorylated no less than 40 % Ctrl?
Marked response: false (0)

Exam item: I'd appreciate it if you could say whether "Cc1cc2c([nH]1)/C=C1\C(=O)Nc3ccc(cc31)-c1c(C)n[nH]c1CNCCN(C)C2=O" has % Ctrl, ABL1-nonphosphorylated at least equal to 40 % Ctrl.
Marked response: false (0)

Exam item: Assess whether reported % Ctrl, ABL1-nonphosphorylated for "Cc1cc2c([nH]1)/C=C1\C(=O)Nc3ccc(cc31)CN(C)C(=O)COCCNC2=O" sits at 40 % Ctrl or higher.
Marked response: true (1)
